B1: TPR t1 (parent)
chain: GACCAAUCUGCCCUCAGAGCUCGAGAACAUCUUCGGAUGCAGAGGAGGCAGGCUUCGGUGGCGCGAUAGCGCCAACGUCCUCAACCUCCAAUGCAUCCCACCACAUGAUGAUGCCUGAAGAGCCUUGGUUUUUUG

Variants of: B1
Assay: polymerase ribozyme fitness, log enrichment relative to wild type (log ratio); higher = more active; in vitro selection for triplet polymerase activity
READOUT LABEL: polymerase ribozyme fitness (log ratio)
No unit in the answer, only the number.

**Query** Which measured polymerase ribozyme fitness (log ratio) value corresponds to C40G C56A G69C C115G ?
**Result** -6.15

**Query** Try this variant too: A50G C62U G69U C80A
**Result** -3.77

**Query** Try this variant too: C4G A18U
**Result** -4.14

**Query** Try this variant too: G48A A105C G120A A121C G122U U129A
**Result** -3.55

**Query** Try this variant too: C34G C53U
**Result** -5.89

**Query** Try this variant too: A29C G61U C70U A75G U78G
**Result** -3.77

**Query** Try this variant too: A6U C53U G61C G77C C104A
**Result** -2.75

**Query** Try this variant too: U7A G36U G61U C124G
**Result** 0.266

**Query** Try this variant too: G19U C101A
**Result** -4.08

**Query** Try this variant too: G52A G57A A66U G127C
**Result** -3.31

**Query** Try this variant too: C80G C104U
**Result** -5.71
